Molecular target: PA-CMG2 interaction (Homo sapiens, UniProt P58335, C175A/R40C)
Sequence (P58335 40-217 R40C/C175A): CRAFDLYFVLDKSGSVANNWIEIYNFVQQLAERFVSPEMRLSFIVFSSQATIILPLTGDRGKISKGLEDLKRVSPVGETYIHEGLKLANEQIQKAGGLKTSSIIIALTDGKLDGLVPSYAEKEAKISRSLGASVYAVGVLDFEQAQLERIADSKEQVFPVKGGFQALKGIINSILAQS
Assay: CMG2-PA FRET assay
Type: binding
Details: FRET assay
Value kind: inhibitory effect on CMG2-PA interaction (in words)

Smiles text	Endpoint value
O=C(O[C@@H]1OC[C@@H](OC(=O)c2cc(O)c(O)c(O)c2)[C@@H](OC(=O)c2cc(O)c(O)c(O)c2)[C@H]1OC(=O)c1cc(O)c(O)c(O)c1)c1cc(O)c(O)c(O)c1	no inhibitory effect
O=C(O[C@@H]1OC[C@@H](OC(=O)c2ccc(O)c(O)c2O)[C@@H](OC(=O)c2ccc(O)c(O)c2O)[C@H]1OC(=O)c1ccc(O)c(O)c1O)c1ccc(O)c(O)c1O	no inhibitory effect
O=C(O[C@H]1OC[C@@H](OC(=O)c2ccc(O)c(O)c2O)[C@@H](OC(=O)c2ccc(O)c(O)c2O)[C@H]1OC(=O)c1ccc(O)c(O)c1O)c1ccc(O)c(O)c1O	no inhibitory effect
